These entries and their values trace back to paper PMC11378028.

- subject-of-test: E. coli topoisomerase IV (Escherichia coli)
- Sequence (P20083 whole entry): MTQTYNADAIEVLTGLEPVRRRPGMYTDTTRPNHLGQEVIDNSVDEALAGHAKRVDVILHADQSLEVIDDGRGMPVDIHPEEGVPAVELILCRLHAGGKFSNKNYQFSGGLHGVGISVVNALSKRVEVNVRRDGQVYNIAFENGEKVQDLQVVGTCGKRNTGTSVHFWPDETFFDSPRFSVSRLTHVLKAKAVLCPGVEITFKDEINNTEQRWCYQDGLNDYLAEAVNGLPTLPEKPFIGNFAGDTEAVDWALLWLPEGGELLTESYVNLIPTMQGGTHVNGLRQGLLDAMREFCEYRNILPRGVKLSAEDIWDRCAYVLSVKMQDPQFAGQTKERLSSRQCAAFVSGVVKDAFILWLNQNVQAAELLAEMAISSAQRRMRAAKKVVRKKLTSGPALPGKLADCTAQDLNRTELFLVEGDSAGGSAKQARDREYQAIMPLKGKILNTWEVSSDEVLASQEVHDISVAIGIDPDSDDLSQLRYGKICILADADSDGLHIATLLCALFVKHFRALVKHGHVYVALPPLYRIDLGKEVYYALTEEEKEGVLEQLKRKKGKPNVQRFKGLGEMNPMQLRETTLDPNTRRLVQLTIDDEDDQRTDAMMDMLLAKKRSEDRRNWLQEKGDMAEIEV
- Sequence (P0AFI2 whole entry partner): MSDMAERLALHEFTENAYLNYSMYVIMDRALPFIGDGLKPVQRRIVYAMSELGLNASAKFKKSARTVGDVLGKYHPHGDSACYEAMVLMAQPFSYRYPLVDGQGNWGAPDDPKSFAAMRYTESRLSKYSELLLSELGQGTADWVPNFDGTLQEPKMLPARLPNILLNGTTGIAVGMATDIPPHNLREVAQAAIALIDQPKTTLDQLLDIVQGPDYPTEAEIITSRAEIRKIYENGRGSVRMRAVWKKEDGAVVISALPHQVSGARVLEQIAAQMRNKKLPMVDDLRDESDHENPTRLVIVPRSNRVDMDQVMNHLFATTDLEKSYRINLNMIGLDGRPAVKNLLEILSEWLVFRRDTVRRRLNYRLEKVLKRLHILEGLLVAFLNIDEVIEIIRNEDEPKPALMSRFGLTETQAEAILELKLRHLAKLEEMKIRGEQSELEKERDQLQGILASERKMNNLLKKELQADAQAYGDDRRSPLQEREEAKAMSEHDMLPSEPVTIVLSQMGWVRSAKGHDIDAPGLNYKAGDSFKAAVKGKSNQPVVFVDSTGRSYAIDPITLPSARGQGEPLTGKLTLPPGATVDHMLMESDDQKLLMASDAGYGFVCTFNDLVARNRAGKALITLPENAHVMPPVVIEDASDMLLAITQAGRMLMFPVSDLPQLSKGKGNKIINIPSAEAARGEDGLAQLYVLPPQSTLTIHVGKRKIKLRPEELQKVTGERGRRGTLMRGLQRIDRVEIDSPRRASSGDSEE
- protocol-details: topoisomerase IV relaxation plate assay
- Assay type: biochemical
- measurement-context: read-out: RA (residual activity) E. coli topo IV
Consider the cut-off 90%. If the recorded remaining activity at 1 µM is strictly smaller, the label is Y; if not, the label is N.

Some solved cases for reference:
compound | group
Cc1[nH]c(C(=O)Nc2ccc(C(=O)O)cc2N2CCNCC2)c(Cl)c1Cl.Cl [Compound 20a] | N
Cc1[nH]c(C(=O)Nc2ccc(C(=O)O)cc2N2CCN(C(=O)OC(C)(C)C)CC2)c(Cl)c1Cl [Compound 18a] | N
Cc1[nH]c(C(=O)Nc2ccc(-c3n[nH]c(=O)o3)cc2OCc2ccccc2)c(Cl)c1Cl [Compound 39] | N
COC(=O)c1ccc(NC(=O)c2[nH]c(C)c(Cl)c2Cl)c(N2CCC[C@H](N)C2)c1.Cl [Compound 19c] | Y

Now let's try a different one.
Task: Does this compound meet the criterion remaining activity at 1 µM < 90%? Cc1[nH]c(C(=O)Nc2ccc(C(=O)NCC(=O)O)cc2N2CCNCC2)c(Cl)c1Cl [Compound 10a]
Output: N
